Source listed as the supplement of paper PMC7877785.

Assignment: determine reported self-splicing fitness (ln) for the given sequences.
protocol-text: self-splicing fitness, log relative to wild type (ln ratio); higher = more splicing; Tetrahymena group I intron in knt gene, E. coli kanamycin selection, DiMSum; sequences stand for … in CUCUCU…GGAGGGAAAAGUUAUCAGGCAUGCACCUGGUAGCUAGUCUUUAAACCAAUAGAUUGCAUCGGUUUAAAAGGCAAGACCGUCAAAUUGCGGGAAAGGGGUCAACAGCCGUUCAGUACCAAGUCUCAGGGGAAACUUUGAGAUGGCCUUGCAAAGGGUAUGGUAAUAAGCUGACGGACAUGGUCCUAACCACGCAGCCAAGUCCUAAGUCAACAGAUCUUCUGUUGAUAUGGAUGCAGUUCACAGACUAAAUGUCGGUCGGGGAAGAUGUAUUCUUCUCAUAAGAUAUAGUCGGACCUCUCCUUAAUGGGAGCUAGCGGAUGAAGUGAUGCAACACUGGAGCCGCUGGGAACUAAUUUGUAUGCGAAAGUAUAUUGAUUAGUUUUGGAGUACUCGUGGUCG;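 further: selection with 25 µg/mL kanamycin versus none on LB agar overnight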
particulars: 30 °C
Response field accepts a number only; no unit should be typed.

**Query** Please give measured self-splicing fitness (ln) of the following entry: GAGGAGCAAUAUUACGGGAU
**Result** -2.69

**Query** Please give measured self-splicing fitness (ln) of the following entry: GGCUAGCAAUAUUACGCCCG
**Result** -4.06

**Query** Please give measured self-splicing fitness (ln) of the following entry: ACAAAGCAAUAUUACGGCCU
**Result** -0.338

**Query** Please give measured self-splicing fitness (ln) of the following entry: CAACAGCAAUAUUACGGCAU
**Result** -3.38

**Query** Please give measured self-splicing fitness (ln) of the following entry: ACGUAGCAAUAUUACGUCCA
**Result** -1.02

**Query** Please give measured self-splicing fitness (ln) of the following entry: AAAGAGCAAUAUUACGUAAC
**Result** -3.77

**Query** Please give measured self-splicing fitness (ln) of the following entry: GCACAGCAAUAUUACGACUG
**Result** -1.14

**Query** Please give measured self-splicing fitness (ln) of the following entry: AGGGAGCAAUAUUACGGAUU
**Result** -4.58

**Query** Please give measured self-splicing fitness (ln) of the following entry: CAACAGCAAUAUUACGUGCC
**Result** -3.31

**Query** Please give measured self-splicing fitness (ln) of the following entry: CUAUAGCAAUAUUACGGAGA
**Result** -2.82

**Query** Please give measured self-splicing fitness (ln) of the following entry: CGGUAGCAAUAUUACGGCAA
**Result** -2.22

**Query** Please give measured self-splicing fitness (ln) of the following entry: CACGAGCAAUAUUACGGUGC
**Result** -3.91

**Query** Please give measured self-splicing fitness (ln) of the following entry: GAGUAGCAAUAUUACGGAGC
**Result** -2.75

**Query** Please give measured self-splicing fitness (ln) of the following entry: UCAGAGCAAUAUUACGGGCC
**Result** -3.69

**Query** Please give measured self-splicing fitness (ln) of the following entry: CGGGAGCAAUAUUACGGAAG
**Result** -2.64

**Query** Please give measured self-splicing fitness (ln) of the following entry: AUACAGCAAUAUUACGCGAA
**Result** -1.42

**Query** Please give measured self-splicing fitness (ln) of the following entry: GCAAAGCAAUAUUACGAAGG
**Result** -2

**Query** Please give measured self-splicing fitness (ln) of the following entry: AGAGAGCAAUAUUACGUUUU
**Result** -3.68

**Query** Please give measured self-splicing fitness (ln) of the following entry: UUUCAGCAAUAUUACGAAUA
**Result** -0.788

**Query** Please give measured self-splicing fitness (ln) of the following entry: GACGAGCAAUAUUACGACAC
**Result** -3.03

**Query** Please give measured self-splicing fitness (ln) of the following entry: UUCAAGCAAUAUUACGUAUC
**Result** -4.16

**Query** Please give measured self-splicing fitness (ln) of the following entry: ACGGAGCAAUAUUACGGACG
**Result** -1.96

**Query** Please give measured self-splicing fitness (ln) of the following entry: GGCUAGCAAUAUUACGGUAG
**Result** -2.31

**Query** Please give measured self-splicing fitness (ln) of the following entry: GAAUAGCAAUAUUACGCACA
**Result** -0.518

**Query** Please give measured self-splicing fitness (ln) of the following entry: UGGCAGCAAUAUUACGUGGU
**Result** -2.84

**Query** Please give measured self-splicing fitness (ln) of the following entry: UAGAAGCAAUAUUACGCGGG
**Result** -2.4

**Query** Please give measured self-splicing fitness (ln) of the following entry: UCAGAGCAAUAUUACGUUUU
**Result** -3.84

**Query** Please give measured self-splicing fitness (ln) of the following entry: CCGAAGCAAUAUUACGUAAG
**Result** -0.257

**Query** Please give measured self-splicing fitness (ln) of the following entry: AGCCAGCAAUAUUACGUUGG
**Result** -3.52

**Query** Please give measured self-splicing fitness (ln) of the following entry: ACUUAGCAAUAUUACGGUAG
**Result** -3.35

**Query** Please give measured self-splicing fitness (ln) of the following entry: AAAAAGCAAUAUUACGCAGG
**Result** -2.42

**Query** Please give measured self-splicing fitness (ln) of the following entry: CAGAAGCAAUAUUACGUUGU
**Result** -3.38

**Query** Please give measured self-splicing fitness (ln) of the following entry: AACGAGCAAUAUUACGCCAA
**Result** -2.5

**Query** Please give measured self-splicing fitness (ln) of the following entry: CGUAAGCAAUAUUACGCGUU
**Result** -3.69

**Query** Please give measured self-splicing fitness (ln) of the following entry: UACAAGCAAUAUUACGACUA
**Result** -0.188

**Query** Please give measured self-splicing fitness (ln) of the following entry: AGUUAGCAAUAUUACGCACU
**Result** -1.6

**Query** Please give measured self-splicing fitness (ln) of the following entry: CCGUAGCAAUAUUACGUGGC
**Result** -3.76

**Query** Please give measured self-splicing fitness (ln) of the following entry: GCACAGCAAUAUUACGCUAG
**Result** -1.9

**Query** Please give measured self-splicing fitness (ln) of the following entry: AAGAAGCAAUAUUACGACGC
**Result** -0.655

**Query** Please give measured self-splicing fitness (ln) of the following entry: AUAAAGCAAUAUUACGUAGU
**Result** -1.9

**Query** Please give measured self-splicing fitness (ln) of the following entry: UACUAGCAAUAUUACGUGCA
**Result** -1.01

**Query** Please give measured self-splicing fitness (ln) of the following entry: AGUAAGCAAUAUUACGACGA
**Result** -1.15

**Query** Please give measured self-splicing fitness (ln) of the following entry: GGCGAGCAAUAUUACGAUUA
**Result** -2.12

**Query** Please give measured self-splicing fitness (ln) of the following entry: UCUGAGCAAUAUUACGCUGU
**Result** -2

**Query** Please give measured self-splicing fitness (ln) of the following entry: CUGAAGCAAUAUUACGAGUA
**Result** -3.67

**Query** Please give measured self-splicing fitness (ln) of the following entry: GCGGAGCAAUAUUACGAUUG
**Result** -3.31

**Query** Please give measured self-splicing fitness (ln) of the following entry: UAUAAGCAAUAUUACGGGAG
**Result** -2.07

**Query** Please give measured self-splicing fitness (ln) of the following entry: UGCGAGCAAUAUUACGGUUG
**Result** -1.51

**Query** Please give measured self-splicing fitness (ln) of the following entry: AGAAAGCAAUAUUACGAAAU
**Result** -1.52

**Query** Please give measured self-splicing fitness (ln) of the following entry: AGUGAGCAAUAUUACGUCUA
**Result** -2.45

**Query** Please give measured self-splicing fitness (ln) of the following entry: AAGAAGCAAUAUUACGGUCG
**Result** -0.736

**Query** Please give measured self-splicing fitness (ln) of the following entry: UCUAAGCAAUAUUACGUCAG
**Result** -1.23

**Query** Please give measured self-splicing fitness (ln) of the following entry: ACACAGCAAUAUUACGGUCU
**Result** -0.341

**Query** Please give measured self-splicing fitness (ln) of the following entry: UAGGAGCAAUAUUACGGAAG
**Result** -2.94

**Query** Please give measured self-splicing fitness (ln) of the following entry: CUGAAGCAAUAUUACGUGCA
**Result** -3.96
